molecular target: P2X purinoceptor 5 (Homo sapiens); test: Antagonist activity against human P2X5R stably transfected in human 1321N1 cells incubated for 30 mins by Fura-2 AM staining based calcium influx assay
Sequence (Q93086 whole entry): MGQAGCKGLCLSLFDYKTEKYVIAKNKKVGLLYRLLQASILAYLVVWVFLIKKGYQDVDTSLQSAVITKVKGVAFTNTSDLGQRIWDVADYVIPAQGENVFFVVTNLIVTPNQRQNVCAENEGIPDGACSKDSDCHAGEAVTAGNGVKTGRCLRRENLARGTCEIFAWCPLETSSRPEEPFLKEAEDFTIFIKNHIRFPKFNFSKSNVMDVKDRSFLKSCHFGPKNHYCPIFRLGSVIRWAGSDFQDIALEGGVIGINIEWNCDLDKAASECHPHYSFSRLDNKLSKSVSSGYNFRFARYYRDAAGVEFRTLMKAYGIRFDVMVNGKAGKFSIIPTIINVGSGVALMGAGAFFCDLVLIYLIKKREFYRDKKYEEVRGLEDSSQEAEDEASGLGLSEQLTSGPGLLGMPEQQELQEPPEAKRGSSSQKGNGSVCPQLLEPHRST
Measured property: IC50 (µM)
# unit: µM | format: bare number

smiles_input=O=C(NC(=S)Nc1ccc(O)cc1)c1ccc2c(c1)OCO2 numeric_value=27.6
smiles_input=Cc1ccc(C(=O)Nc2ccc(S(=O)(=O)O)c3cc(S(=O)(=O)O)cc(S(=O)(=O)O)c23)cc1NC(=O)c1cccc(NC(=O)Nc2cccc(C(=O)Nc3cc(C(=O)Nc4ccc(S(=O)(=O)O)c5cc(S(=O)(=O)O)cc(S(=O)(=O)O)c45)ccc3C)c2)c1 numeric_value=15.8

// recorded IC50 for "O=C(NC(=S)Nc1ccc([N+](=O)[O-])cc1)c1ccc2c(c1)OCO2" : 1.65
